# study system: Human CB1 receptor (hCB1) (Homo sapiens, UniProt P21554)
# Sequence (P21554 whole entry): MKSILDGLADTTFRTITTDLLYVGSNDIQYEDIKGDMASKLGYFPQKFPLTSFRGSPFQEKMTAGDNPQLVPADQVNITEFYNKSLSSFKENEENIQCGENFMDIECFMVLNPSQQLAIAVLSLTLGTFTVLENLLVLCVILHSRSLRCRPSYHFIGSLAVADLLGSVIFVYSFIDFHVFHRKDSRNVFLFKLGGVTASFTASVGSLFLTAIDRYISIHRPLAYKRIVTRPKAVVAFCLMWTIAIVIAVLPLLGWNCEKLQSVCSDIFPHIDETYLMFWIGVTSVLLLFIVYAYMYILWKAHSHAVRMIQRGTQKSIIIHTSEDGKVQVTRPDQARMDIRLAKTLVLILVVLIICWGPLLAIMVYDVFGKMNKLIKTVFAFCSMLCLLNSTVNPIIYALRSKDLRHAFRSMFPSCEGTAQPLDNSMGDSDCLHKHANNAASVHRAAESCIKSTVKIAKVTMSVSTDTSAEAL
What log10 Ki was measured for each of the following?
Annotation: log10 of Ki, nM basis.

(Q) GET /values?readout=log10 Ki&item= CN(CCCC(=O)NCCO)C(=O)c1ccc2c(c1)c1c(n2C)CC[C@@H](C2CCOCC2)C1
(A) 1.84

(Q) Field entry: CC(C)S(=O)(=O)n1c2c(c3cc(C(=O)N(C)CC(=O)NC4CC4)ccc31)CC(C1CCCCC1)CC2 (centres unmarked)
(A) 1.33

(Q) Field entry: CCNC(=O)CCCN(C)C(=O)c1ccc2c(c1)c1c(n2C)CCC(C2CCOCC2)C1 (centres unmarked)
(A) 1.56

(Q) Field entry: Cn1c2c(c3cc(C(=O)NCCF)ccc31)CC(C1CCOCC1)CC2 (centres unmarked)
(A) 2.82

(Q) Field entry: CN(CCCC(=O)NCCO)C(=O)c1ccc2c(c1)c1c(n2C)CCC(C2CCOCC2)C1 (centres unmarked)
(A) 1.96

====

# study system: Human CB1 receptor (hCB1) (Homo sapiens)
property measured: Ki (nM)
Answer format: numeric, nM implied, no suffix.

(Q) GET /values?readout=Ki&item= C[C@H](C(=O)NCCF)N(C)C(=O)c1ccc2c(c1)c1c(n2C)CCC(C2CCOCC2)C1 (stereo partly drawn)
(A) 157

(Q) Field entry: Cn1c2c(c3cc(C(=O)N4CC[C@H](C(=O)NCC5CC5)C4)ccc31)CC(C1CCOCC1)CC2 (stereo partly drawn)
(A) 109

(Q) Field entry: Cn1c2c(c3cc(C(=O)N4CC(CC(=O)NC5CC5)C4)ccc31)CC(C1CCOCC1)CC2 (stereo not drawn)
(A) 2080

(Q) Field entry: CCNC(=O)CCCN(C)C(=O)c1ccc2c(c1)c1c(n2CCF)CCC(C2CCOCC2)C1 (stereo not drawn)
(A) 237

(Q) Field entry: Cn1c2c(c3cc(C(=O)NCCCC(=O)NC4CC4)ccc31)CC(C1CCOCC1)CC2 (stereo not drawn)
(A) 1440

(Q) Field entry: CCN(CC(=O)NCCCF)C(=O)c1ccc2c(c1)c1c(n2S(=O)(=O)CC)CCC(C2CCOCC2)C1 (stereo not drawn)
(A) 24

(Q) Field entry: CCN(CC(=O)N[C@@H]1CCOC1)C(=O)c1ccc2c(c1)c1c(n2C)CCC(C2CCOCC2)C1 (stereo partly drawn)
(A) 218

(Q) Field entry: CCn1c2c(c3cc(C(=O)N(C)CCCC(=O)NC)ccc31)CC(C1CCOCC1)CC2 (stereo not drawn)
(A) 59.2

====

# study system: Human CB1 receptor (hCB1) (Homo sapiens, UniProt P21554)
# Construct: purchased Receptor Biology
# assay protocol: hCB1 GTPγS binding
# Format: biochemical
# cond: maximal stimulated binding determined with 10 μM Win 55,212-2
# Protocol: hCB1 and hCB2 GTPγS Binding Human CB1 receptor from Receptor Biology (hCB1) or human CB2 receptor membranes (BioSignal) are thawed at 37° C., passed 3 times through a 25-gauge blunt-end needle and diluted in the GTPγS binding buffer (50 mM Hepes, 20 mM NaOH, 100 mM NaCl, 1 mM EDTA, 5 mM MgCl2, pH 7.4, 0.1% BSA). […] The basal and maximal stimulated binding is determined in absence and presence of 1 μM (hCB2) or 10 μM (hCB1) Win 55, 212-2 respectively. […]
What Emax was measured for each of the following?
Answer format: numeric, % implied, no suffix.

(Q) GET /values?readout=Emax&item= CCN(CC(=O)NCCC#N)C(=O)c1ccc2c(c1)c1c(n2S(=O)(=O)CC)CCC(C2CCOCC2)C1 (stereo not drawn)
(A) 115

(Q) Field entry: CCN(CC(=O)NC(C)C)C(=O)c1ccc2c(c1)c1c(n2C)CCC(C2CCOCC2)C1 (stereo not drawn)
(A) 123

(Q) Field entry: Cn1c2c(c3cc(C(=O)N4CC[C@H](C(=O)NC5CC5)C4)ccc31)CC(C1CCOCC1)CC2 (stereo partly drawn)
(A) 134

(Q) Field entry: CN(CCCC(=O)NCC#N)C(=O)c1ccc2c(c1)c1c(n2C)CC[C@@H](C2CCOCC2)C1
(A) 110

(Q) Field entry: CCS(=O)(=O)n1c2c(c3cc(C(=O)N4CCC(C)CC4)ccc31)CC(C1CCCCC1)CC2 (stereo not drawn)
(A) 107

(Q) Field entry: CCNC(=O)[C@@H](C)N(C)C(=O)c1ccc2c(c1)c1c(n2C)CCC(C2CCOCC2)C1 (stereo partly drawn)
(A) 112

(Q) Field entry: CCN(CC(=O)NC1COC1)C(=O)c1ccc2c(c1)c1c(n2C)CCC(C2CCOCC2)C1 (stereo not drawn)
(A) 117

(Q) Field entry: Cn1c2c(c3cc(C(=O)N4CC[C@H](CC(=O)NC5CC5)C4)ccc31)CC(C1CCOCC1)CC2 (stereo partly drawn)
(A) 115

====

What log10(Ki) was measured for each of the following?
# study system: Human CB1 receptor (hCB1) (Homo sapiens, UniProt P21554)
Annotation: log10 of Ki, nM basis.

(Q) GET /values?readout=log10(Ki)&item= CN(CCC(=O)NC1CC1)C(=O)c1ccc2c(c1)c1c(n2C)CCC(C2CCOCC2)C1 (centres unmarked)
(A) 2.82

(Q) Field entry: Cn1c2c(c3cc(C(=O)N4CC[C@H](C(=O)NCC(F)F)C4)ccc31)CC(C1CCOCC1)CC2 (some centres unmarked)
(A) 1.69

(Q) Field entry: CCNC(=O)C1CCN(C(=O)c2ccc3c(c2)c2c(n3C)CCC(C3CCOCC3)C2)C1 (centres unmarked)
(A) 2.21

(Q) Field entry: CN(CC(=O)NC1CC1)C(=O)c1ccc2c(c1)c1c(n2S(C)(=O)=O)CCC(C2CCCCC2)C1 (centres unmarked)
(A) 0.90

(Q) Field entry: CN(CC(=O)NCCF)C(=O)c1ccc2c(c1)c1c(n2C)CCC(C2CCOCC2)C1 (centres unmarked)
(A) 2.46

====

# study system: Human CB1 receptor (hCB1) (Homo sapiens, UniProt P21554)
# assay protocol: hCB1 GTPγS binding
# cond: hCB1 membranes, GTPγ35S, 10-point dose-response
pEC50: −log10 of the molar value.
Please use 1.0 whenever pEC50 is not below 8, and 0.0 whenever it is.

(Q) Textbook exercise: given the entry CCN(CCCC(=O)NC1CC1)C(=O)c1ccc2c(c1)c1c(n2C)CCC(C2CCOCC2)C1 (centres unmarked) , state whether its pEC50 is greater than or equal to 8.
(A) 1.0

(Q) Field entry: CCN(CC(=O)NC1CC1)C(=O)c1ccc2c(c1)c1c(n2CC2CC2)CCC(C2CCOCC2)C1 (centres unmarked)
(A) 0.0

(Q) Field entry: CN(CC(=O)NC1CC1)C(=O)c1ccc2c(c1)c1c(n2S(C)(=O)=O)CCC(C2CCCCC2)C1 (centres unmarked)
(A) 0.0

(Q) Field entry: Cn1c2c(c3cc(C(=O)N4CCC(C(=O)NC5CC5)CC4)ccc31)CC(C1CCOCC1)CC2 (centres unmarked)
(A) 0.0

(Q) Field entry: CC(C)C(=O)NC1CCCN(C(=O)c2ccc3c(c2)c2c(n3C)CCC(C3CCOCC3)C2)C1 (centres unmarked)
(A) 0.0

====

# study system: Human CB1 receptor (hCB1) (Homo sapiens)
# Construct: purchased Receptor Biology
# assay protocol: hCB1 GTPγS binding
# Format: biochemical
# cond: maximal stimulated binding determined with 10 μM Win 55,212-2
What Emax was measured for each of the following?
Answer format: numeric, % implied, no suffix.

(Q) GET /values?readout=Emax&item= CN(CCCC(=O)NCCO)C(=O)c1ccc2c(c1)c1c(n2C)CCC(C2CCOCC2)C1 (stereo not drawn)
(A) 122

(Q) Field entry: CCn1c2c(c3cc(C(=O)N(C)CCCC(=O)NCC(F)F)ccc31)CC(C1CCOCC1)CC2 (stereo not drawn)
(A) 114

(Q) Field entry: CCN(CC(=O)NCCOC)C(=O)c1ccc2c(c1)c1c(n2C)CCC(C2CCOCC2)C1 (stereo not drawn)
(A) 113

(Q) Field entry: Cn1c2c(c3cc(C(=O)N4CCC(C(=O)NC5CC5)C4)ccc31)CC(C1CCOCC1)CC2 (stereo not drawn)
(A) 121

(Q) Field entry: CN(C(=O)c1ccc2c(c1)c1c(n2C)CC[C@@H](C2CCOCC2)C1)[C@H](CO)CCC(=O)NCC(F)F
(A) 120

(Q) Field entry: Cn1c2c(c3cc(C(=O)N4CC[C@H](C(=O)NCC(F)F)C4)ccc31)CC(C1CCOCC1)CC2 (stereo partly drawn)
(A) 125

(Q) Field entry: CCN(CC(=O)NCCF)C(=O)c1ccc2c(c1)c1c(n2C)CCC(C2CCOCC2)C1 (stereo not drawn)
(A) 108

(Q) Field entry: CCN(CCCC(=O)NCCO)C(=O)c1ccc2c(c1)c1c(n2C)CC[C@@H](C2CCOCC2)C1
(A) 113

(Q) Field entry: CCN(CC(=O)NCCF)C(=O)c1ccc2c(c1)c1c(n2S(=O)(=O)CC)CCC(C2CCOCC2)C1 (stereo not drawn)
(A) 107

(Q) Field entry: CCNC(=O)CN(CC)C(=O)c1ccc2c(c1)c1c(n2CCF)CCC(C2CCOCC2)C1 (stereo not drawn)
(A) 109

(Q) Field entry: CCN(CC(=O)NCC(F)F)C(=O)c1ccc2c(c1)c1c(n2C)CCC(C2CCOCC2)C1 (stereo not drawn)
(A) 116

(Q) Field entry: CCN(CC(=O)NCC(F)(F)F)C(=O)c1ccc2c(c1)c1c(n2S(=O)(=O)CC)CCC(C2CCOCC2)C1 (stereo not drawn)
(A) 112

(Q) Field entry: CN(CCCC(=O)NCCF)C(=O)c1ccc2c(c1)c1c(n2C)CCC(C2CCOCC2)C1 (stereo not drawn)
(A) 121

(Q) Field entry: CCN(CC(=O)NC[C@@H](C)O)C(=O)c1ccc2c(c1)c1c(n2C)CCC(C2CCOCC2)C1 (stereo partly drawn)
(A) 124

(Q) Field entry: C[C@H](C(=O)NCCF)N(C)C(=O)c1ccc2c(c1)c1c(n2C)CCC(C2CCOCC2)C1 (stereo partly drawn)
(A) 107

(Q) Field entry: CCS(=O)(=O)n1c2c(c3cc(C(=O)N(C)CC(=O)NC4CC4)ccc31)CC(C1CCOCC1)CC2 (stereo not drawn)
(A) 116

(Q) Field entry: CCN(CCCCO)C(=O)c1ccc2c(c1)c1c(n2C)CCC(C2CCOCC2)C1 (stereo not drawn)
(A) 122

Numbers sourced from patent US20090062251A1.
